Each recorded value in this set is attributed to the RNAGym collection of RNA variant scans (doi:10.7554/elife.80360).

B1: HDV Ribozyme (parent)
chain: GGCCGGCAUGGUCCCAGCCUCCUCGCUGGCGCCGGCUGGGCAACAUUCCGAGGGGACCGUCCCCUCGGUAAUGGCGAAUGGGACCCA

# Variants of: B1
# test details: self-cleavage, relative activity (ratio to wild type); higher = more cleavage; co-transcriptional
For each entry below, report its self-cleavage value.

[[record]]
var = "G10U A83G"
assay_result = 0.221

[[record]]
var = "C63U U79G"
assay_result = 0.54

[[record]]
var = "C4A U60A"
assay_result = 0.284

[[record]]
var = "C19U A51G"
assay_result = 0.194

[[record]]
var = "A16G U20G"
assay_result = 0.145

[[record]]
var = "A43C G80A"
assay_result = 0.124

[[record]]
var = "C3A G82C"
assay_result = 0.056

[[record]]
var = "G73U C84G"
assay_result = 0.329

[[record]]
var = "U47A A83U"
assay_result = 0.287

[[record]]
var = "G25C C85U"
assay_result = 0


State the recorded self-cleavage for every item in the following list.
1. A8U C86A
2. U60A C61A
3. C4U G53A
4. U12A G28U
5. U9A C44U
6. G17U G55A

Reply:
0.997
0.742
0.665
0.181
0.95
0.554

State the recorded self-cleavage for every item in the following list.
1. C30A C32A
2. C19G C24A
3. C3G C18U
4. U9G C18A
5. G35C G67U
6. C49A A70U

Reply:
1. 0.0627
2. 0.115
3. 0.04
4. 0.0923
5. 0.133
6. 0.812
